- EXPERIMENTAL_SYSTEM: recombinant human MMP-13 (Homo sapiens, UniProt P45452)
- Construct: made in house; host or cells: baculovirus (pBlueBac4 / Bac-N-Blue; virus made in Sf9), expressed in High-Five insect cells; culture supernatant used
- PROTOCOL_DESCRIPTION: Assay of MMP-13 inhibiting activity (fluorogenic peptide substrate)
- Format: biochemical
- MEASUREMENT_CONTEXT: Table 9; 37° C., 2 hours
As shown below, each of these compounds has a reported IC50 value.
VALUE_KIND: IC50 (nM)

compound="CC(=O)SC1CC(=O)N(Cc2ccc(Oc3ccc(C(=O)O)cc3)cc2)C1 (stereo not drawn) [Example 133]" experimental_system="recombinant human MMP-13 (Homo sapiens, UniProt P45452)" measure_unit=nM relation_operator=> value_measured=10000
compound="CC(=O)SC1CC(=O)N(Cc2ccc(Oc3ccc(Br)cc3)cc2)C1 (stereo not drawn) [Example 34]" experimental_system="recombinant human MMP-13 (Homo sapiens, UniProt P45452)" measure_unit=nM relation_operator== value_measured=10
compound="CC(=O)SC1CC(=O)N(Cc2ccc(Oc3cccc(F)c3)cc2)C1 (stereo not drawn) [Example 114]" experimental_system="recombinant human MMP-13 (Homo sapiens, UniProt P45452)" measure_unit=nM relation_operator== value_measured=10
compound="CC(=O)SC1CC(=O)N(Cc2ccc(Oc3ccccc3)c([N+](=O)[O-])c2)C1 (stereo not drawn) [Example 151]" experimental_system="recombinant human MMP-13 (Homo sapiens, UniProt P45452)" measure_unit=nM relation_operator=> value_measured=10000
compound="O=C1CC(S)CN1Cc1ccc(Oc2ccc(Cl)cc2)cc1 (stereo not drawn) [Example 33]" experimental_system="recombinant human MMP-13 (Homo sapiens, UniProt P45452)" measure_unit=nM relation_operator== value_measured=5
compound="O=C1CC(S)CN1Cc1ccc(Oc2ccc(OC(F)(F)F)cc2)cc1 (stereo not drawn) [Example 141]" experimental_system="recombinant human MMP-13 (Homo sapiens, UniProt P45452)" measure_unit=nM relation_operator== value_measured=10
compound="O=C1CC(S)CN1Cc1ccc(Oc2ccccc2F)cc1 (stereo not drawn) [Example 113]" experimental_system="recombinant human MMP-13 (Homo sapiens, UniProt P45452)" measure_unit=nM relation_operator== value_measured=4
compound="CC(=O)SC1CC(=O)N(Cc2ccc(Oc3ccc(Cl)cc3)cc2)C1 (stereo not drawn) [Example 32]" experimental_system="recombinant human MMP-13 (Homo sapiens, UniProt P45452)" measure_unit=nM relation_operator== value_measured=8
compound="CS(=O)(=O)Nc1cc(CN2CC(S)CC2=O)ccc1Oc1ccccc1 (stereo not drawn) [Example 153]" experimental_system="recombinant human MMP-13 (Homo sapiens, UniProt P45452)" measure_unit=nM relation_operator== value_measured=4000
compound="CCOc1ccc(Oc2ccc(CN3CC(S)CC3=O)cc2)cc1 (stereo not drawn) [Example 139]" experimental_system="recombinant human MMP-13 (Homo sapiens, UniProt P45452)" measure_unit=nM relation_operator== value_measured=6
compound="CC(=O)SC1CC(=O)N(Cc2ccc(Oc3ccc(NS(C)(=O)=O)cc3)cc2)C1 (stereo not drawn) [Example 146]" experimental_system="recombinant human MMP-13 (Homo sapiens, UniProt P45452)" measure_unit=nM relation_operator== value_measured=25
compound="CC(=O)S[C@@H]1CC(=O)N(Cc2ccc(Oc3ccc(C)cc3)cc2)C1 [Example 127]" experimental_system="recombinant human MMP-13 (Homo sapiens, UniProt P45452)" measure_unit=nM relation_operator== value_measured=10
compound="CC(=O)S[C@@H]1CC(=O)N(Cc2ccc(Oc3ccc(C)cc3)cc2)C1 [Example 123]" experimental_system="recombinant human MMP-13 (Homo sapiens, UniProt P45452)" measure_unit=nM relation_operator== value_measured=8.9
compound="CC(=O)SC1CC(=O)N(Cc2ccc(Oc3ccc(F)cc3)cc2)C1 (stereo not drawn) [Example 30]" experimental_system="recombinant human MMP-13 (Homo sapiens, UniProt P45452)" measure_unit=nM relation_operator== value_measured=10
compound="CC(=O)SC1CC(=O)N(Cc2ccc(Oc3ccc(F)c(F)c3)cc2)C1 (stereo not drawn) [Example 121]" experimental_system="recombinant human MMP-13 (Homo sapiens, UniProt P45452)" measure_unit=nM relation_operator== value_measured=20
compound="O=C1CC(S)CN1Cc1ccc(Oc2cccc(F)c2)cc1 (stereo not drawn) [Example 115]" experimental_system="recombinant human MMP-13 (Homo sapiens, UniProt P45452)" measure_unit=nM relation_operator== value_measured=4
compound="CC(=O)S[C@@H]1CC(=O)N(Cc2ccc(Oc3ccc(F)cc3)cc2)C1 [Example 117]" experimental_system="recombinant human MMP-13 (Homo sapiens, UniProt P45452)" measure_unit=nM relation_operator== value_measured=7
compound="CCNC(=O)Nc1ccc(Oc2ccc(CN3CC(SC(C)=O)CC3=O)cc2)cc1 (stereo not drawn) [Example 148]" experimental_system="recombinant human MMP-13 (Homo sapiens, UniProt P45452)" measure_unit=nM relation_operator== value_measured=25
compound="CC(=O)Nc1ccc(Oc2ccc(CN3CC(S)CC3=O)cc2)cc1 (stereo not drawn) [Example 145]" experimental_system="recombinant human MMP-13 (Homo sapiens, UniProt P45452)" measure_unit=nM relation_operator== value_measured=1.3
compound="CCNC(=O)Nc1ccc(Oc2ccc(CN3CC(S)CC3=O)cc2)cc1 (stereo not drawn) [Example 149]" experimental_system="recombinant human MMP-13 (Homo sapiens, UniProt P45452)" measure_unit=nM relation_operator== value_measured=3.5
compound="CC(=O)SC1CC(=O)N(Cc2ccc(Oc3ccccc3)cc2[N+](=O)[O-])C1 (stereo not drawn) [Example 150]" experimental_system="recombinant human MMP-13 (Homo sapiens, UniProt P45452)" measure_unit=nM relation_operator== value_measured=5500

----------
- EXPERIMENTAL_SYSTEM: recombinant human MMP-13 (Homo sapiens, UniProt P45452)
- Construct: made in house; host or cells: baculovirus (pBlueBac4 / Bac-N-Blue; virus made in Sf9), expressed in High-Five insect cells; culture supernatant used
- PROTOCOL_DESCRIPTION: Assay of MMP-13 inhibiting activity (fluorogenic peptide substrate)
- Assay type: biochemical
- MEASUREMENT_CONTEXT: Table 3; 37° C., 2 hours
Quick list: IC50 per entry.
VALUE_KIND: IC50 (nM)

molecule="C/C(=C(\\CCO)SS[C@@H]1CC(=O)N(Cc2ccc(Oc3ccccc3)cc2)C1)N(C=O)Cc1cnc(C)nc1N [Example 88]" measure_unit=nM value_measured=670
molecule="CCCNC(=O)SC1CC(=O)N(Cc2ccc(Oc3ccccc3)cc2)C1 (stereo not drawn) [Example 52]" measure_unit=nM value_measured=2
molecule="O=C1C[C@@H](SCN2C(=O)c3ccccc3C2=O)CN1Cc1ccc(Oc2ccccc2)cc1 [Example 104]" measure_unit=nM value_measured=200

----------
- EXPERIMENTAL_SYSTEM: recombinant human MMP-13 (Homo sapiens, UniProt P45452)
- Construct: made in house; host or cells: baculovirus (pBlueBac4 / Bac-N-Blue; virus made in Sf9), expressed in High-Five insect cells; culture supernatant used
- PROTOCOL_DESCRIPTION: Assay of MMP-13 inhibiting activity (fluorogenic peptide substrate)
- Format: biochemical
- MEASUREMENT_CONTEXT: Table 3; 37° C., 2 hours
VALUE_KIND: log10(IC50) (log10 of the value in nM)

compound=CC(=O)S[C@H]1CC(=O)N(Cc2ccc(Oc3ccccc3)cc2)C1 value_measured=3.60
compound="O=C(Cc1ccccc1)SC1CC(=O)N(Cc2ccc(Oc3ccccc3)cc2)C1 (stereo not shown)" value_measured=0.30
compound=CC(C)(C)C(=O)NCS[C@@H]1CC(=O)N(Cc2ccc(Oc3ccccc3)cc2)C1 value_measured=3.48
compound=CCCCCCSS[C@@H]1CC(=O)N(Cc2ccc(Oc3ccccc3)cc2)C1 value_measured=3.00
compound="O=C1OC(S[C@@H]2CC(=O)N(Cc3ccc(Oc4ccccc4)cc3)C2)c2ccccc21 (stereo partly shown)" value_measured=0.85
compound=CCSS[C@@H]1CC(=O)N(Cc2ccc(Oc3ccccc3)cc2)C1 value_measured=2.00
compound=O=C1C[C@@H](SCCO)CN1Cc1ccc(Oc2ccccc2)cc1 value_measured=3.70
compound=O=C(O)c1ccc(CS[C@@H]2CC(=O)N(Cc3ccc(Oc4ccccc4)cc3)C2)cc1 value_measured=2.85
compound=CC(C)(C)SS[C@@H]1CC(=O)N(Cc2ccc(Oc3ccccc3)cc2)C1 value_measured=3.00
compound=O=C(O)CCSS[C@@H]1CC(=O)N(Cc2ccc(Oc3ccccc3)cc2)C1 value_measured=2.66
